Entry source: ChEMBL document CHEMBL1201862

Test: inhibitors of intracellular T. cruzi replication, confirmation, NIH3T3 host cells, beta-gal luminescence (AID 2044);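 note: intracellular parasites grown in NIH/3T3 mouse fibroblasts as host cells; luminescent beta-galactosidase reporter signal from transgenic T. cruzi replicating inside host cells; inhibitors lower the luminescence signal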
Type: functional, cell-based
Activity calls are given as the source filed them. Cut-off read from the data, not from the text of the source: actives have a measured EC50 and inactives only a lower limit.
Entries annotated with measured EC50
resultType: EC50

> print(dat)
                                   compound  experimentalvalue
1    CS(=O)(=O)c1nc(-c2cccs2)cc(C(F)(F)F)n1   2.57 µM (active)
2             CN1CCC(OC(=O)c2ccc(Br)cc2)CC1  < 0.1 µM (active)
3  CC(C(=O)N1CCc2ccccc21)N1CCN(Cc2ccccc2)CC1 (configuration not stated)  0.793 µM (active)
4  CN1CCN(c2ccccc2NC(=O)c2ccc(-c3ccc(Br)cc3)o2)CC1   2.18 µM (active)
5    COc1ccc2c(c1)N(C)/C(=C/c1cccc[n+]1C)S2  < 0.1 µM (active)
6  Cc1cccc(-c2nc(Nc3ccc(N4CCOCC4)cc3)c3ccccc3n2)c1   1.23 µM (active)
7    COc1ccc(/C=N/Nc2cc(C)nc3c(C)cccc23)cc1   1.14 µM (active)

* * *

Target: Streptokinase A (Streptococcus pyogenes serotype M1, UniProt P10520)
Sequence (P10520 whole entry): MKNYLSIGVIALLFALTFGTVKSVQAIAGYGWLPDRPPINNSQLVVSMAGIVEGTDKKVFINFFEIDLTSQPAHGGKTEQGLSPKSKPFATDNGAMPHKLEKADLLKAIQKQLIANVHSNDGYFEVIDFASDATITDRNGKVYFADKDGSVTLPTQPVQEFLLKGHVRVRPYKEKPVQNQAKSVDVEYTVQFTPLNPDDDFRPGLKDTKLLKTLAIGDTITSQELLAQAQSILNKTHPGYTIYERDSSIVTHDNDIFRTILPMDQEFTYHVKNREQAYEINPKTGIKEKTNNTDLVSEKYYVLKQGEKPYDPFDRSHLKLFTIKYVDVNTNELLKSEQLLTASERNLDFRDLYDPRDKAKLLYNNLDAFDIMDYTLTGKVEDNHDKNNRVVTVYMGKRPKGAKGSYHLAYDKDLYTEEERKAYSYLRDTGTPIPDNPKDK
Assay: S. pyogenes streptokinase expression inhibitors, potency, dose response, plasminogen activation absorbance, OD405 (AID 1914);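 note: secreted streptokinase activity via plasminogen activation per viability signal from cell pellet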
Assay type: functional, Streptococcus pyogenes M1 GAS
Active and inactive are the calls of the source. No stated cut-off is given here; in the data, actives have a measured EC50 and inactives only a lower limit.
Entries annotated with measured EC50
resultType: EC50

> print(dat)
                                    compound  resulttype      experimentalvalue
 1                O=Nc1c(O)c2ccccc2c2ccccc12        EC50       7.11 µM (active)
 2  COc1ccc(C(=O)/C=C/c2ccc(-c3ccccc3)cc2)cc1CSCC(=O)O        EC50       8.81 µM (active)
 3  CC(C)S(=O)(=O)c1csc(NC(=O)Nc2cc(Cl)ccc2Cl)c1Cl        EC50       7.69 µM (active)
 4  CC(=O)Nc1sc(NC(=O)c2ccc([N+](=O)[O-])cc2)nc1-c1cccs1        EC50  > 150 µM (not active)
 5  O=C(O)c1ccc(N/N=C/c2ccc(OC(=O)c3ccccc3Cl)cc2)cc1        EC50  > 150 µM (not active)
 6  CCOC(=O)C1=C(C)n2c(s/c(=C/c3cccc([N+](=O)[O-])c3)c2=O)=NC1c1ccc(O)c(OC)c1 (stereo not given)        EC50       48.8 µM (active)
 7  CC(C)n1cnc2c(NCc3ccccc3)nc(NCc3ccccc3)nc21        EC50  > 150 µM (not active)
 8  Cc1cc(C)c(CSc2nc(-c3ccc([N+](=O)[O-])cc3)c[nH]2)c(C)c1        EC50       10.3 µM (active)
 9  COc1cc(C(=O)NNC(=S)NC(=O)c2ccccc2C)cc(OC)c1OC        EC50  > 150 µM (not active)
10  O=C(c1cnn2c(C(F)(F)F)cc(-c3ccc(F)cc3)nc12)N1CCc2ccccc2C1        EC50         37 µM (active)
